Molecular target: T1, hIRP1 (GST fusion) (human, UniProt P21399 1-889)
T1 sequence: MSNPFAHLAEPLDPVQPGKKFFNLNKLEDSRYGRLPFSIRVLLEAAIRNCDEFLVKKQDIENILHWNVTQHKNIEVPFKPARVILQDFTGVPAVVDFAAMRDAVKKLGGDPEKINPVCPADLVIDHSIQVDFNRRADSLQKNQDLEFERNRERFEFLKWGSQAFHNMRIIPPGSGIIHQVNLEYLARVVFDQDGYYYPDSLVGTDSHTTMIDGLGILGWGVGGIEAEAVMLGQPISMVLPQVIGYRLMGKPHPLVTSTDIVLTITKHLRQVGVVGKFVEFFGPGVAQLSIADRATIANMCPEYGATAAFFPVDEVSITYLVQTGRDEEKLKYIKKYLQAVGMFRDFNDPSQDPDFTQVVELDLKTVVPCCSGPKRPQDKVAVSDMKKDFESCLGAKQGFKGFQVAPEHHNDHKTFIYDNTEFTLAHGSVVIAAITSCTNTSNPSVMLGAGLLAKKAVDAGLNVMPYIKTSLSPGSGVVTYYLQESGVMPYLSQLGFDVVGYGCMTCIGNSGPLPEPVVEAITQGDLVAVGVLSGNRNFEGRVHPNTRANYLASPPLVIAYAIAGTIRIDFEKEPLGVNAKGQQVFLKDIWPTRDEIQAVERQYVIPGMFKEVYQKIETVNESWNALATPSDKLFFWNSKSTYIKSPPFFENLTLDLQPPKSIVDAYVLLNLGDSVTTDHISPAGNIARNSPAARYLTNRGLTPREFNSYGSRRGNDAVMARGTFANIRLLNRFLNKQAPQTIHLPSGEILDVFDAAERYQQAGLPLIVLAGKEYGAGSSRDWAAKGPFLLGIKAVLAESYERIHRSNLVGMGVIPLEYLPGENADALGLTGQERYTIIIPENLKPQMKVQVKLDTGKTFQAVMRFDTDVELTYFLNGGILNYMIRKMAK
Experiment: EMSA; 2 mM Mg2+; 5.2 nM RNA; mean of 3 experiments; 10 mM HEPES pH 7.6, 2 mM MgCl2, 40 mM KCl, 5% glycerol, 1 mM DTT, 20 uL, room temperature 30 min, […] (7%/14%) […]
Settings: protein: recombinant; label: 32P-CTP; hairpin
observable: Kd (nM)
Enter your answer as a number in nM; do not include the unit.

Challenge: // query Kd value for entry GACCGUGCCCAUGAGCACGUC (structured_RNA) [ET2+3]
Response given: 54
